In this section we review reported growth values for a set of compounds.
# System: DU-145 prostate
# runDescription: NCI-60 one-dose screen, 48 h (100 = growth as untreated, 0 = no growth, -100 = all killed)
# cond: 10 µM unless noted
About 83,000 compounds went through this panel and 20% of them were active in at least one assay; those are over-represented in the sample as a whole.

{"columns": ["compound", "growth (%)"],
 "data": [
  ["COC(=O)/C(CCC=C(C)C)=C1\\[C@@H](OC(C)=O)C[C@@]2(C)[C@H]1C/C(=N/O)[C@H]1[C@@]3(C)CC/C(=N\\O)[C@@H](C)[C@@H]3CC[C@@]12C", 106],
  ["O=[N+]([O-])c1ccccc1Nc1ccc2ccccc2c1", 107],
  ["O=C1Nc2ccc(Cl)cc2/C1=C/c1ccc[nH]1", 83.6],
  ["Cn1c(C#N)ccc1-c1ccc(F)c(NC(=O)c2ccc(F)cc2)c1", 94.3],
  ["Clc1ccc(-c2nc(C(Cl)Cl)nc3cc(-c4ccccc4)nn23)cc1", -2.59],
  ["COc1ccc(/C=C(/C(=O)N2CCNCC2)c2cc(OC)c(OC)c(OC)c2)cc1O", 27],
  ["CC(C)(C)CC(C)(C)Nc1c(-c2c(O)c3ccccc3oc2=O)nc2sc3ccccc3n12", 53.7],
  ["Cc1nc2sc(C(=O)Nc3ccccn3)c(N)c2cc1C(C)O (centres undefined)", 103],
  ["CC(C)c1ccc2c(c1)CC[C@H]1[C@](C)(C(=O)OCC#CCN3CCCC3)CCC[C@]21C", 89.3]
]}

----------
# Tested on: KM12 colon
# runDescription: NCI-60 one-dose screen, 48 h (100 = growth as untreated, 0 = no growth, -100 = all killed)
# cond: 10 µM unless noted
This is part of a sample that, as a whole, favours compounds with a hit. Of some 83,000 tested, about 20% had one in any assay.
In this section we review reported growth values for a set of compounds.

{"columns": ["compound", "subjectOfTest", "growth [%]"],
 "data": [
  ["COC1C(O)CC(OC2CC(OC3CC(O[C@@H]4C(=O)c5c(cc6cc(OC7CC(OC8CC(O)C(O)C(C)O8)C(O)C(C)O7)c(C)c(O)c6c5O)CC4[C@H](OC)C(=O)O)OC(C)C3O)OC(C)C2O)OC1C (some centres undefined)", "KM12 colon", 22.9],
  ["CC(O)CNC(Cc1ccccc1)c1ccc2c(c1)OCO2 (centres undefined)", "KM12 colon", 99.3],
  ["COc1ccc(C(=O)C/C(=C\\c2ccc(O)c(OC)c2)C(=O)NN)cc1", "KM12 colon", 73.2],
  ["NCCCNc1nc2ccccc2c2c(=O)c3cc(Cl)ccc3sc12", "KM12 colon", -67.4]
]}

----------
# Test system: MDA-MB-435 melanoma
# runDescription: NCI-60 one-dose screen, 48 h
# cond: 10 µM unless noted
Compounds without any hit were thinned out: in the full panel of roughly 83,000, 20% have a hit. Activity calls are given as the source filed them. How the source made its calls: active means growth percent below 10; inactive means the rest.
Labels: label 1 = active, label 0 = inactive

{"columns": ["smilesCode", "subjectOfTest", "categoryLabel"],
 "data": [
  ["O=c1ccc2ccc(OCCN3CCCCC3)cc2o1", "MDA-MB-435 melanoma", "label 0"],
  ["CCN1C2CCC1/C(=C\\c1ccccc1)C(=O)/C2=C/c1ccccc1", "MDA-MB-435 melanoma", "label 0"],
  ["C=C(C)[C@@H]1CC[C@]2(C(=O)N3CCN(C)CC3)CC[C@]3(C)[C@H](CC[C@@H]4[C@@](C)(CCC(=O)O)[C@H](C(=C)C)CC[C@]43C)[C@@H]12", "MDA-MB-435 melanoma", "label 0"],
  ["COc1ccc(C/C(C)=C(\\c2ccc(Cl)cc2)c2ccc(OCCN3CCCC3)cc2)cc1", "MDA-MB-435 melanoma", "label 0"],
  ["COc1ccc2cc(C(=O)N3CCC([C@@H](C)C(=O)NCc4ccc5c(c4)OCO5)CC3)[nH]c2c1", "MDA-MB-435 melanoma", "label 0"],
  ["CN1C(=O)/C(=C/c2ccc(C(=O)Nc3ncc(Cc4cc(Cl)ccc4Cl)s3)cc2)SC1=S", "MDA-MB-435 melanoma", "label 1"],
  ["CC(=O)Nc1sc2c(c1-c1nc3ccccc3s1)CNC2", "MDA-MB-435 melanoma", "label 0"]
]}
